system: Staphylococcus aureus; assay: Antibacterial activity against Staphylococcus aureus after 24 hrs by micro-broth dilution technique; type: functional
Collected log10 of MIC values appear next to each entry.
Give log10 of MIC, with MIC taken in µg/mL.

Answered cases to consult:
- cpdSmiles: "Nc1nc(-c2ccccc2Cl)cc(-c2cccc3ccccc23)n1"
  assayEndpoint: "log10 of MIC"
  value: 1.60
- cpdSmiles: "Nc1nc(-c2cccc(Cl)c2)cc(-c2cccc3ccccc23)n1"
  assayEndpoint: "log10 of MIC"
  value: 1.59
- cpdSmiles: "Nc1nc(-c2ccc(Cl)cc2)cc(-c2cccc3ccccc23)n1"
  assayEndpoint: "log10 of MIC"
  value: 1.09
- cpdSmiles: "CC1(C)S[C@@H]2[C@H](NC(=O)[C@H](N)c3ccccc3)C(=O)N2[C@H]1C(=O)O"
  assayEndpoint: "log10 of MIC"
  value: 0.00
- cpdSmiles: "Nc1nc(-c2ccc([N+](=O)[O-])cc2)cc(-c2cccc3ccccc23)n1"
  assayEndpoint: "log10 of MIC"
  value: 1.41

IN: Can you look up log10 of MIC on Staphylococcus aureus for `Nc1nc(-c2ccc(F)cc2)cc(-c2cccc3ccccc23)n1` ?
OUT: 0.86

IN: Record: `Nc1nc(-c2cccc([N+](=O)[O-])c2)cc(-c2cccc3ccccc23)n1`
OUT: 1.46

---

Collected MIC values appear next to each entry.
system: Staphylococcus aureus; test: Antibacterial activity against Staphylococcus aureus after 24 hrs by micro-broth dilution technique; assay type: functional

- cpdSmiles: "Nc1nc(-c2ccccc2)cc(-c2cccc3ccccc23)n1"
  value: "> 60 µg/mL"
- cpdSmiles: "COc1ccccc1-c1cc(-c2cccc3ccccc23)nc(N)n1"
  value: "> 60 µg/mL"

IN: Can you look up MIC on Staphylococcus aureus for `COc1ccc(-c2cc(-c3cccc4ccccc34)nc(N)n2)cc1` ?
OUT: > 60 µg/mL
